These data points were gathered from ChEMBL document CHEMBL3885861.

The entries below come with measured IP values attached.
species on record: Rattus norvegicus; experiment: Open TG-GATES - Regimen: Daily Repeat; format: toxicity, organism-based, Sprague-Dawley; parameters: regimen Daily Repeat, gender Male, age 6 weeks; conditions: in vivo, po, 0 mg/kg, 72 h, tissue Plasma, route gavage, dose level Control, time 3 day

- compound: "C=CCO"
  IP: "6.1 mg/dL"
- compound: "Cc1cnc(NC(=O)C2=C(O)c3ccccc3S(=O)(=O)N2C)s1"
  IP: "7.7 mg/dL"
- compound: "COc1ccc(O)c(C(C)(C)C)c1.COc1ccc(O)cc1C(C)(C)C [BUTYLATED HYDROXYANISOLE]"
  IP: "7.3 mg/dL"
- compound: "Cc1cccc(Nc2cc(Cl)nc(SCC(=O)O)n2)c1C"
  IP: "8.2 mg/dL"
- compound: "Cn1cnc([N+](=O)[O-])c1Sc1ncnc2nc[nH]c12"
  IP: "7.2 mg/dL"
- compound: "O=P1(N(CCCl)CCCl)NCCCO1 (stereo unspecified) [CYCLOPHOSPHAMIDE ANHYDROUS]"
  IP: "6.4 mg/dL"
- compound: "O=C1CN(/N=C/c2ccc(-c3ccc([N+](=O)[O-])cc3)o2)C(O)=N1"
  IP: "7.5 mg/dL"
- compound: "Cn1c(=O)c2c(ncn2C)n(C)c1=O"
  IP: "7.9 mg/dL"
- compound: "O=C1NC(=O)C(c2ccccc2)(c2ccccc2)N1"
  IP: "7.6 mg/dL"
- compound: "COc1ccc(Cl)cc1C(=O)NCCc1ccc(S(=O)(=O)NC(=O)NC2CCCCC2)cc1 [GLYBURIDE]"
  IP: "7.4 mg/dL"
- compound: "CS(=O)(=O)Nc1ccc([N+](=O)[O-])cc1Oc1ccccc1 [NIMESULIDE]"
  IP: "7.5 mg/dL"

###

species: Rattus norvegicus; assay: Open TG-GATES - Regimen: Daily Repeat; type: toxicity, organism-based, Sprague-Dawley; design: regimen Daily Repeat, gender Male, age 6 weeks; conditions: in vivo, po, 0 mg/kg, […], tissue Plasma, route gavage, dose level Control, time 7 day

- molecule: "O=C1CN(/N=C/c2ccc(-c3ccc([N+](=O)[O-])cc3)o2)C(O)=N1"
  result-units: "meq/L"
  Na: 138.6
- molecule: "O=C1NC(=O)C(c2ccccc2)(c2ccccc2)N1"
  result-units: "meq/L"
  Na: 141.6
- molecule: "O=P1(N(CCCl)CCCl)NCCCO1 (stereo not given) [CYCLOPHOSPHAMIDE ANHYDROUS]"
  result-units: "meq/L"
  Na: 143.8
- molecule: "Cn1cnc([N+](=O)[O-])c1Sc1ncnc2nc[nH]c12"
  result-units: "meq/L"
  Na: 143.2
- molecule: "Cc1cccc(Nc2cc(Cl)nc(SCC(=O)O)n2)c1C"
  result-units: "meq/L"
  Na: 142.4
- molecule: "Cc1cnc(NC(=O)C2=C(O)c3ccccc3S(=O)(=O)N2C)s1"
  result-units: "meq/L"
  Na: 142
- molecule: "COc1ccc(O)c(C(C)(C)C)c1.COc1ccc(O)cc1C(C)(C)C [BUTYLATED HYDROXYANISOLE]"
  result-units: "meq/L"
  Na: 142
- molecule: "C=CCO"
  result-units: "meq/L"
  Na: 140.6
- molecule: "CS(=O)(=O)Nc1ccc([N+](=O)[O-])cc1Oc1ccccc1 [NIMESULIDE]"
  result-units: "meq/L"
  Na: 140.4
- molecule: "COc1ccc(Cl)cc1C(=O)NCCc1ccc(S(=O)(=O)NC(=O)NC2CCCCC2)cc1 [GLYBURIDE]"
  result-units: "meq/L"
  Na: 141.6
